- TARGET ENTITY: human Npt2a (Homo sapiens, UniProt Q06495)
- PROTOCOL DESCRIPTION: Npt2a activity cell based assay, membrane potential dye, CHO T-REx hNpt2a cells
- STATED CONDITIONS: doxycycline-induced, depolarization by sodium phosphate influx, average or median values if tested more than once
pIC50: −log10 of the molar value.
Use 7 as the dividing line for pIC50, with the line itself on the class 1 side and lower values as class 0.

Hello, I need to know if Cc1nn(-c2cc(Nc3nn(C)c(-c4ccc(F)cc4)c3C)ncn2)c(C)c1C(F)(F)F [Example 383] has measured pIC50 not below 7. Thanks! class 1

----------
- TARGET ENTITY: human Npt2a (Homo sapiens)
- Sequence (Q06495 1-639): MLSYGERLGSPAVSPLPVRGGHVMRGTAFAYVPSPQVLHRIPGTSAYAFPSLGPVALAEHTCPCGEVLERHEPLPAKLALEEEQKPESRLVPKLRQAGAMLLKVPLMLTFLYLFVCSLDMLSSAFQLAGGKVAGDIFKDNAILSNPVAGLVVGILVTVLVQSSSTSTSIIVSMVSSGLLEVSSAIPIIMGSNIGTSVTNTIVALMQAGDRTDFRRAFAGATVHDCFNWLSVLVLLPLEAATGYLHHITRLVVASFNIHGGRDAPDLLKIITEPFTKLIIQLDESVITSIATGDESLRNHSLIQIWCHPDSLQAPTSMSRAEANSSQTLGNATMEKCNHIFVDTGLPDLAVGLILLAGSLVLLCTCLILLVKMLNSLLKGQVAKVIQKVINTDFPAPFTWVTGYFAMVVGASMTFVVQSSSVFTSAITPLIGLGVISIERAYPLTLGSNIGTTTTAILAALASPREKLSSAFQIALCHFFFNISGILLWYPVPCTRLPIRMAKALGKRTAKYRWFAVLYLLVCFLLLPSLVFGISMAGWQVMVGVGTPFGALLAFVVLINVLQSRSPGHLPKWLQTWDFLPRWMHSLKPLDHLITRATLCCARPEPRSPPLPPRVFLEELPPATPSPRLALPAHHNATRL
- PROTOCOL DESCRIPTION: Npt2a activity cell based assay, membrane potential dye, CHO T-REx hNpt2a cells
- STATED CONDITIONS: doxycycline-induced, depolarization by sodium phosphate influx, average or median values if tested more than once
The label criterion met is reserved for IC50 strictly under 60 nM; criterion not met covers values equal to or above it.

These solved cases illustrate the format of a correct answer.
* Cc1cc(C(F)F)n(-c2cc(Nc3c(C)c(-c4ccc(C(F)F)cc4)nn3C)ncn2)n1 | criterion met
* COc1c(C)nn(-c2cc(Nc3nn(C)c(-c4ccc(F)cn4)c3C)ncn2)c1C | criterion not met
* Cc1cc(C)n(-c2cc(Nc3c(C)c(-c4ccc(C#N)cc4)nn3CCC3CC3)ncn2)n1 | criterion met
* CNc1ccc(-c2nn(CC3CC3)c(Nc3cc(-n4nc(C)c(C(F)(F)F)c4C)ncn3)c2C)cc1 | criterion not met
* Cc1cc(C)n(-c2cc(Nc3c(C)c(-c4ccc(C5CC5)cc4)nn3C)ncn2)n1 | criterion not met

Lab note: confirm whether the reported IC50 for this compound is below 60 nM, equality not counting. compound: Cc1cc(C(F)F)n(-c2cc(Nc3nn(C)c(-c4ccc(F)cc4)c3Cl)ncn2)n1 criterion met

Lab note: confirm whether the reported IC50 for this compound is below 60 nM, equality not counting. compound: CCc1c(Nc2cc(-n3nc(C)c(CC(C)(C)O)c3C)ncn2)nn(C)c1-c1ccc(F)cc1 criterion not met

Lab note: confirm whether the reported IC50 for this compound is below 60 nM, equality not counting. compound: Cc1cc(C)n(-c2cc(Nc3nn(C)c(-c4ccc(OC(F)(F)F)cc4)c3C)ncn2)n1 criterion met

Lab note: confirm whether the reported IC50 for this compound is below 60 nM, equality not counting. compound: CC(=O)c1c(C)nn(-c2cc(Nc3c(C)c(-c4ccc(C#N)cc4)nn3C)ncn2)c1C criterion not met

Lab note: confirm whether the reported IC50 for this compound is below 60 nM, equality not counting. compound: Cc1cc(C(F)F)n(-c2cc(Nc3c(C)c(-c4ccc(F)cn4)nn3C)ncn2)n1 criterion not met

Lab note: confirm whether the reported IC50 for this compound is below 60 nM, equality not counting. compound: Cc1nn(-c2cc(Nc3c(C)c(-c4ccc(F)cc4)nn3CC3CC3)ncn2)c(C)c1C(O)C(F)(F)F (racemic) [Example 374] criterion not met

Lab note: confirm whether the reported IC50 for this compound is below 60 nM, equality not counting. compound: Cc1nn(-c2cc(Nc3c(C)c(-c4ccc(F)cc4F)nn3C)ncn2)c(C)c1C(C)(C)O criterion not met

Lab note: confirm whether the reported IC50 for this compound is below 60 nM, equality not counting. compound: COc1c(Nc2cc(-n3nc(C)cc3C)ncn2)nn(C)c1-c1ccc(F)cc1 criterion not met

Lab note: confirm whether the reported IC50 for this compound is below 60 nM, equality not counting. compound: CCc1c(Nc2cc(-n3nc(C)c(C(=O)N4CC(C)OC(C)C4)c3C)ncn2)nn(C)c1-c1ccc(F)cc1 (racemic) criterion not met

Lab note: confirm whether the reported IC50 for this compound is below 60 nM, equality not counting. compound: COCCn1nc(-c2ccc(F)cc2)c(C)c1Nc1cc(-n2nc(C)cc2C)ncn1 criterion met

Lab note: confirm whether the reported IC50 for this compound is below 60 nM, equality not counting. compound: Cc1cc(C)n(-c2cc(Nc3c(C)c(-c4ccc(F)cn4)nn3C)ncn2)n1 criterion not met

Lab note: confirm whether the reported IC50 for this compound is below 60 nM, equality not counting. compound: Cc1cc(C(F)F)n(-c2cc(Nc3nn(C)c(-c4ccc(C(F)F)cc4)c3C)ncn2)n1 criterion not met

Lab note: confirm whether the reported IC50 for this compound is below 60 nM, equality not counting. compound: CCc1c(-c2ccc(C#N)cc2)nn(CC2CC2)c1Nc1cc(-n2nc(C)c(Cl)c2C(F)F)ncn1 criterion met

Lab note: confirm whether the reported IC50 for this compound is below 60 nM, equality not counting. compound: Cc1nn(-c2cc(Nc3c(C)c(-c4ccc(C(F)(F)F)cc4)nn3C)ncn2)c(C)c1C(C)(C)O criterion not met

Lab note: confirm whether the reported IC50 for this compound is below 60 nM, equality not counting. compound: Cc1nn(-c2cc(Nc3c(C)c(-c4ccc(OC(F)F)cc4)nn3CC3CC3)ncn2)c(C)c1C#N criterion not met

Lab note: confirm whether the reported IC50 for this compound is below 60 nM, equality not counting. compound: Cc1cc(C)n(-c2cc(Nc3c(C)c(-c4ccc(F)cc4)nn3C)ncn2)n1 criterion met
